Cited source for all entries: ChEMBL document CHEMBL1201862

tested on: KM12; assay: NCI tumour cell line growth inhibition, 48 h
Where a name gives a salt, the structure may show the parent alone. Activity calls are given as the source filed them. Cut-off read from the data, not from the text of the source: active = GI50 up to about 1.1 µM and inactive = higher.
Below is a list of entries, each paired with its recorded GI50 value.

molecule: Cn1c(=O)c2c(nc3sc4nc5ccccc5nc4n32)n(C)c1=O
testedSystem: KM12
GI50: > 100 µM (inactive)
--
molecule: CCOC(=O)c1c(SCCCN2CCCCC2)n(-c2ccccc2)c(=S)n(-c2ccccc2)c1=O
testedSystem: KM12
GI50: 19.2 µM (inactive)

Consider the molecule CN[C@@H](C)[C@@H](O)c1ccccc1 [PSEUDOEPHEDRINE HYDROCHLORIDE] and give its measured GI50.
> 100 µM (inactive)

Another molecule to check: `O=C1N[C@@H]2c3c(Br)sc(Br)c3C(=O)[C@@H]2O1`
10.7 µM (inactive)

Another molecule to check: `COc1ccc(/N=c2\ssc(C(=S)Nc3ccc(OC)cc3)c2S)cc1`
> 100 µM (inactive)

Another molecule to check: `COc1ccc(C#CC(=O)O)c(OC)c1`
> 100 µM (inactive)

Another molecule to check: `O=C1Nc2ccc(Cl)cc2C(=O)N2CCC[C@@H]12`
> 100 µM (inactive)

Another molecule to check: `CCN(CC)c1c(C(C)(C)C)c(=O)n2ccsc2c1OC(C)=O`
15.5 µM (inactive)

----------
system: A549; assay: NCI tumour cell line growth inhibition, 48 h
Calls of active or inactive are those of the source. Rule as the data show it: active = GI50 up to about 1.1 µM and inactive = higher.
Below is a list of entries, each paired with its recorded GI50 value.

Examples with answers:
compound: COc1ccc(C)cc(O)c1=O
reportedResult: > 100 µM (inactive)

compound: CCOc1cc(NC(C)=O)ccc1C(=O)NNC(=O)c1ccccc1OC(C)=O
reportedResult: 6.76 µM (inactive)

compound: CC(=O)NNc1nc(C)c(C(=O)/C=C/c2ccc(NC(C)=O)cc2)s1
reportedResult: > 100 µM (inactive)

compound: CC(C)N1CN(c2ccccc2)C2(CCN(CCCC(=O)c3ccc(F)cc3)CC2)C1=O
reportedResult: 4.68 µM (inactive)

compound: CCOC(=O)c1c(-c2ccccc2)c(OC)cn1C
reportedResult: > 10 µM (inactive)

Consider the compound `NC(=O)c1nnc2cc(F)c(F)cc2c1N` and give its measured GI50.
90.2 µM (inactive)

Another compound to check: CC(=O)NC(Cc1ccsc1)C(=O)O (configuration not stated)
> 100 µM (inactive)

Another compound to check: `[N-]=[N+]=Nc1c(Cc2ccccc2)c(Cl)nc2ccccc12`
36.3 µM (inactive)

Another compound to check: COc1ccc([S+]([O-])Cc2cc(OC)c(OC)c(OC)c2)cc1 (configuration not stated)
49.1 µM (inactive)

Another compound to check: `Cc1cccc2c3ccc4c(c3n(C)c12)C(=O)C=CC4=O`
> 100 µM (inactive)

Another compound to check: `CCCNc1ncnc2c1ncn2C`
> 100 µM (inactive)

Another compound to check: COC1C=C(Nc2cccc(Cl)c2)C(=O)C1 (configuration not stated)
18.5 µM (inactive)

Another compound to check: `CS(=O)(=O)c1nc(N)nc2nc[nH]c12`
> 100 µM (inactive)

Another compound to check: `COc1cc([C@H]2CC(=O)C[C@H](c3cc(OC)c(OC)c(OC)c3)C23C(=O)c2ccccc2C3=O)cc(OC)c1OC`
> 100 µM (inactive)

Another compound to check: `Nc1ccc(I)cn1`
> 100 µM (inactive)

Another compound to check: `O=C1NCCCc2nonc21`
> 100 µM (inactive)

Another compound to check: `O=c1c2ccc(Cl)cc2oc2c(CNc3ccc(S(=O)(=O)Nc4nccs4)cc3)cccc12`
> 100 µM (inactive)
